molecular target: CLR/RAMP2 receptor (Homo sapiens, UniProt O60895+Q16602); test: CLR/RAMP2 arrestin receptor-activation assay (agonist mode); type: cell-based; settings: agonist mode; positive control ADM
Sequence (Q16602 23-461): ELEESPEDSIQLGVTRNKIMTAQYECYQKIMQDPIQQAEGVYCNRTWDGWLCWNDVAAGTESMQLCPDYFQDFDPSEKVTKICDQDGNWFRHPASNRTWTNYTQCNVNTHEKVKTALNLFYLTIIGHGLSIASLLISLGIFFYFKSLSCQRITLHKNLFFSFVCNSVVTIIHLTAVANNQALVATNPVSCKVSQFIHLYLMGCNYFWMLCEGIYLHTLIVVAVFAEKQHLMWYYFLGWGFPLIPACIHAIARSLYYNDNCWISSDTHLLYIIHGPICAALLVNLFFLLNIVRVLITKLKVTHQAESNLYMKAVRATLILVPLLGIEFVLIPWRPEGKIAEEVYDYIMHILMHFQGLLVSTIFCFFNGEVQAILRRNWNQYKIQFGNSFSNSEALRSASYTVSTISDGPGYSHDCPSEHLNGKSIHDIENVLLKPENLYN
Sequence (O60895 43-175): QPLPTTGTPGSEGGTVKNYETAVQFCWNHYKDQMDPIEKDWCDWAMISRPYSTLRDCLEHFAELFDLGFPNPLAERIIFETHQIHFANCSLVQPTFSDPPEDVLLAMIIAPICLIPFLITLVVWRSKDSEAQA
READOUT_LABEL: CLR/RAMP2 Max Activity % of positive control

Consider the substance Ace-RPKPQQFFGLM-miniPEG-K(PAL)GCRFGTCTVQKLAHQIYQFTDKDSAPVDPSSPHSY-NH2 [SEQ ID NO: 147] . State its measured CLR/RAMP2 Max Activity % of positive control. 90 % of positive control

Let me know recorded CLR/RAMP2 Max Activity % of positive control for Ace-PEG12-PEG12-K([19-carboxy-nonadecanoyl]-isoGlu-PEG3)GCRFGTCTVQKLAHQIYQFTDKDKDNVAPRSKISPQGY-NH2 [SEQ ID NO: 150] , thanks. 60 % of positive control

Tell us which CLR/RAMP2 Max Activity % of positive control value is on record for Ace-PEG3-K(Hexadecanoyl-isoGlu-PEG3-PEG3)GCRFGTCTVQKLAHQIYQFTDKDKDNVAPRSKISPQGY-NH2 [SEQ ID NO: 153] 108 % of positive control

Read off the recorded CLR/RAMP2 Max Activity % of positive control for miniPEG-K(PAL)GCRFGTCTVQKLAHQIYQFTDKDKSAPVDPSSPHSY-NH2 [SEQ ID NO: 47] 64 % of positive control

Supply recorded CLR/RAMP2 Max Activity % of positive control for miniPEG-K(PAL)GCRFGTCTVQKLAHQIYQFTDKDKQDSAPVDPSSPHSY-NH2 [SEQ ID NO: 51] here. 107 % of positive control

Provide only the value of recorded CLR/RAMP2 Max Activity % of positive control for Ace-PEG3-K([19-carboxy-nonadecanoyl]-isoGlu)GCRFGTCTVQKLAHQIYQFTDKDKDNVAPRSKISPQGY-NH2 [SEQ ID NO: 155] 95 % of positive control

Answer with reported CLR/RAMP2 Max Activity % of positive control of miniPEG-K(PAL)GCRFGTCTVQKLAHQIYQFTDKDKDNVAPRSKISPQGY-NH2 [SEQ ID NO: 69] 147 % of positive control

Identify CLR/RAMP2 Max Activity % of positive control associated with the substance miniPEG-K(PAL)GCRFGTCTVQKLAHQIYQFTDKDKDNVAPVDPSSPHSY-NH2 [SEQ ID NO: 50] 87 % of positive control

Please give measured CLR/RAMP2 Max Activity % of positive control of the following entry: Ace-PEG3-K([19-carboxy-nonadecanoyl]-isoGlu-Peg3-Peg3)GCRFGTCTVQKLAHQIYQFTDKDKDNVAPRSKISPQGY-NH2 [SEQ ID NO: 157] 95 % of positive control

Return CLR/RAMP2 Max Activity % of positive control (reported value) for this substance: miniPEG-K(PAL)GCRFGTCTVQKLAHQIYQFTDKDKDNVAPRSKSSPHSY-NH2 [SEQ ID NO: 61] 92 % of positive control

Quickly give me recorded CLR/RAMP2 Max Activity % of positive control for miniPEG-K(PAL)TKKTLRTGCRFGTCTVQKLAHQIYQFTDKDKDNVAPRSKISPQGY-NH2 [SEQ ID NO: 70] 68 % of positive control

Return reported CLR/RAMP2 Max Activity % of positive control. Input substance: Ace-KRPPGFS-DβNal-I-miniPEG-K(PAL)GCRFGTCTVQKLAHQIYQFTDKDVAPRSKISPQGY-NH2 [SEQ ID NO: 231] 46 % of positive control

Output measured CLR/RAMP2 Max Activity % of positive control for this item: miniPEG-K(PAL)GCRFGTCTVQKLAHQIYQFTDKDVAPRSKISPQGY-NH2 [SEQ ID NO: 101] 74 % of positive control

Please supply the value of reported CLR/RAMP2 Max Activity % of positive control for the item (Glp)RPRLSHKGP(Nle)PF-miniPEG-K(PAL)GCRFGTCTVQKLAHQIYQFTDKDVAPRSKISPQGY-NH2 [SEQ ID NO: 228] 74 % of positive control

Let me know recorded CLR/RAMP2 Max Activity % of positive control for miniPEG-K(PAL)CRFGTCTVQKLAHQIYQFTDKDKDNSAPVDPSSPHSY-NH2 [SEQ ID NO: 43] , thanks. 30 % of positive control

Query CLR/RAMP2 Max Activity % of positive control for miniPEG-K(PAL)GCRFGTCTVQKLAHQIYQFTDKDSAPVDPSSPHSY-NH2 [SEQ ID NO: 48] 77 % of positive control

Please supply the value of reported CLR/RAMP2 Max Activity % of positive control for the item miniPEG-K(PAL)GCRFGTCTVQKLAHQIYQFTDKDVAPRSKISP(D-Gln)GY-NH2 [SEQ ID NO: 214] 99 % of positive control

Give me measured CLR/RAMP2 Max Activity % of positive control, please, for this substance: Sar-RVYVHPA-miniPEG-K(PAL)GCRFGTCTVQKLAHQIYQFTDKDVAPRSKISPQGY-NH2 [SEQ ID NO: 234] 86 % of positive control

Given the substance Ace-FGCRFGTCTVQKLAHQIYQFTDKDKDNVAPRSKISPQGY-NH2 [SEQ ID NO: 53, reference compound] , write its reported CLR/RAMP2 Max Activity % of positive control. 102 % of positive control

Fill in CLR/RAMP2 Max Activity % of positive control for record miniPEG-K(PAL)GCRFGTCTVQKLAHQIYQFTDKDKDNSAPVDPSSPHSY-NH2 [SEQ ID NO: 28] 143 % of positive control

* * *

target: CLR/RAMP2 receptor (Homo sapiens, UniProt O60895+Q16602); assay: CLR/RAMP2 arrestin receptor-activation assay (agonist mode); type: cell-based; conditions: agonist mode; positive control ADM;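 also: agonist dose-response in recombinant cell lines stably expressing each receptor complex, duplicate wells over 10 threefold dilutions from a top concentration of 1.0 µM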
For each of the substances below, state its CLR/RAMP2 Max Activity % of positive control.

Specify measured CLR/RAMP2 Max Activity % of positive control for Ace-PEG3-K(Hexadecanoyl-isoGlu)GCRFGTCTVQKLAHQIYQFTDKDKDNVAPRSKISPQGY-NH2 [SEQ ID NO: 151] . 134 % of positive control

Give reported CLR/RAMP2 Max Activity % of positive control value for miniPEG-K(PAL)GCRFGTCTVQKLAHQIYQFTDKGRQDSAPVDPSSPHSY-NH2 [SEQ ID NO: 68] 70 % of positive control

Using the record for AcePEG3--K([17-carboxy-heptadecanoyl]-isoGlu-Peg3-Peg3)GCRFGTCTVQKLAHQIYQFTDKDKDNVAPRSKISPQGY-NH2 [SEQ ID NO: 158] , state its measured CLR/RAMP2 Max Activity % of positive control. 113 % of positive control

Answer with the recorded CLR/RAMP2 Max Activity % of positive control of Ace-PEG3-K(Hexadecanoyl-isoGlu-PEG3)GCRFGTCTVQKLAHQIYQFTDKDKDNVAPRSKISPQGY-NH2 [SEQ ID NO: 152] only. 132 % of positive control

Could you please provide reported CLR/RAMP2 Max Activity % of positive control for miniPEG-TK(Pal)KTLRTGCRFGTCTVQKLAHQIYQFTDKDKDNVAPVDPSSPHSY-NH2 [SEQ ID NO: 42] ? Thanks! 76 % of positive control

Note down CLR/RAMP2 Max Activity % of positive control recorded for miniPEG-K(PAL)GCRFGTCTVQKLAHQIYQFTDKDKDSAPVDPSSPHSY-NH2 [SEQ ID NO: 46] 104 % of positive control

Please give the documented CLR/RAMP2 Max Activity % of positive control of Pyr(glu)-LYENKPRRPYIL-miniPEG-K(PAL)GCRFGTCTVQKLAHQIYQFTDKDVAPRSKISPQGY-NH2 [SEQ ID NO: 223] 70 % of positive control

Answer with the recorded CLR/RAMP2 Max Activity % of positive control for the substance listed here: Ace-PEG3-K([19-carboxy-nonadecanoyl]-isoGlu-PEG3)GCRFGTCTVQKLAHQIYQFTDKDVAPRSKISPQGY-NH2 [SEQ ID NO: 159] 60 % of positive control

Answer with the recorded CLR/RAMP2 Max Activity % of positive control for the substance listed here: miniPEG-K(PAL)GCRFGTCTVQKLAHQIYQFTDKDKDNVDPSSPHSY-NH2 [SEQ ID NO: 94] 82 % of positive control

Give reported CLR/RAMP2 Max Activity % of positive control value for miniPEG-K(PAL)GCRFGTCTVQKLAHQIYQFTDKDVAPR(D-Ser)KISPQGY-NH2 [SEQ ID NO: 213] 107 % of positive control

Give CLR/RAMP2 Max Activity % of positive control for miniPEG-K(PAL)GCRFGTC(D-Thr)VQKLAHQIYQFTDKDVAPRSKISPQGY-NH2 [SEQ ID NO: 210] 47 % of positive control

Answer with the recorded CLR/RAMP2 Max Activity % of positive control of Ace-PEG3-K([19-carboxy-nonadecanoyl]-PEG3-isoGlu)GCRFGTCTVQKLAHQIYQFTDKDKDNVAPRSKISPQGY-NH2 [SEQ ID NO: 156] only. 91 % of positive control

Identify CLR/RAMP2 Max Activity % of positive control associated with the substance miniPEG-K(PAL)GCRFGTCT(D-Val)QKLAHQIYQFTDKDVAPRSKISPQGY-NH2 [SEQ ID NO: 211] 22 % of positive control

State, in one line, measured CLR/RAMP2 Max Activity % of positive control of Ace-PEG3-K(Hexadecanoyl-PEG3-isoGlu)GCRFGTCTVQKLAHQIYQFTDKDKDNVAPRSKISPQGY-NH2 [SEQ ID NO: 154] 112 % of positive control
